B1: SPACA3 (parent)
chain: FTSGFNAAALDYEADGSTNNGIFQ

variants of: B1; assay: protein stability index of a GFP-peptide fusion (GPS, HEK-293T) (PSI 1-6); higher = more stable; details: c terminus: a fixed tail appended;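 also: lentivirally expressed fusions sorted by FACS into six bins by GFP to DsRed ratio, PSI derived from sequencing read proportions per bin multiplied by bin number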
REPORTED ENDPOINT: protein stability index
Just the number, please.

Would you please look over these solved cases?
{"SEQUENCE CODE": "FTDGFNAAALDYEADGSTNNGIFQ [S3D]", "protein stability index": 2.55}
{"SEQUENCE CODE": "FTSGFNAAALDYEIDGSTNNGIFQ [A14I]", "protein stability index": 2.05}
{"SEQUENCE CODE": "NTSGFNAAALDYEADGSTNNGIFQ [F1N]", "protein stability index": 4.94}
{"SEQUENCE CODE": "FTSGFNAAALDYEAPGSTNNGIFQ [D15P]", "protein stability index": 1.64}
{"SEQUENCE CODE": "FTSGFNAAALDYTADGSTNNGIFQ [E13T]", "protein stability index": 2.21}
{"SEQUENCE CODE": "FTSGFNAAAWDYEADGSTNNGIFQ [L10W]", "protein stability index": 1.95}
{"SEQUENCE CODE": "FTSGFNAAALDYEADISTNNGIFQ [G16I]", "protein stability index": 1.92}
{"SEQUENCE CODE": "FTSGFNAAALDYEADGSTQNGIFQ [N19Q]", "protein stability index": 2.44}

// Input: FTSIFNAAALDYEADGSTNNGIFQ [G4I] . Output its protein stability index only. 2.15

// Input: ETSGFNAAALDYEADGSTNNGIFQ [F1E] . Output its protein stability index only. 5.11

// Input: FTSGFNAAALDYEAAGSTNNGIFQ [D15A] . Output its protein stability index only. 2.11

// Input: FSSGFNAAALDYEADGSTNNGIFQ [T2S] . Output its protein stability index only. 2.88

// Input: FTSGFNAAALDYLADGSTNNGIFQ [E13L] . Output its protein stability index only. 1.72

// Input: FTSGFNAAALDYEADGSTNVGIFQ [N20V] . Output its protein stability index only. 2

// Input: FTSFFNAAALDYEADGSTNNGIFQ [G4F] . Output its protein stability index only. 2.13

// Input: FTSGFNAAALDYEADGSCNNGIFQ [T18C] . Output its protein stability index only. 2

// Input: FTSGFNAAVLDYEADGSTNNGIFQ [A9V] . Output its protein stability index only. 1.91

// Input: FTSGFNAAALDYSADGSTNNGIFQ [E13S] . Output its protein stability index only. 1.78

// Input: FTSGFNAAALDPEADGSTNNGIFQ [Y12P] . Output its protein stability index only. 2.09

// Input: FTSGFNAAALDYEADGSTNNGIVQ [F23V] . Output its protein stability index only. 2.11

// Input: FTSGTNAAALDYEADGSTNNGIFQ [F5T] . Output its protein stability index only. 4.06

// Input: FTSGFNAAALDYEADGSTANGIFQ [N19A] . Output its protein stability index only. 1.67

// Input: FTSGFNAAALDYESDGSTNNGIFQ [A14S] . Output its protein stability index only. 1.95

// Input: FTGGFNAAALDYEADGSTNNGIFQ [S3G] . Output its protein stability index only. 4.05

// Input: FDSGFNAAALDYEADGSTNNGIFQ [T2D] . Output its protein stability index only. 4.32

// Input: FTSGFNAAKLDYEADGSTNNGIFQ [A9K] . Output its protein stability index only. 1.62
